# GI50 per entry
test system: DU-145; assay: NCI tumour cell line growth inhibition, 48 h
The source made the active and inactive calls. Rule as the data show it: active = GI50 up to about 1.1 µM and inactive = higher.

NC(=O)C(c1ccccc1)N1OC2C(=O)N(c3ccccc3)C(=O)C2C1c1c2ccccc2c(Cl)c2ccccc12 (stereo unspecified) :: > 100 µM (inactive)
N#CCCC(CC#N)N1CCN(C(CC#N)CCC#N)CC1 (stereo unspecified) :: > 100 µM (inactive)
COC(=O)C1OC(O[C@H]2CC[C@]3(C)[C@H]4CC=C5[C@@H]6CC(C)(C)CC[C@]6(C(=O)OC)CC[C@@]5(C)[C@]4(C)CC[C@H]3C2(C)C)C(O)C(O)C1O (stereo partly specified) :: 14.5 µM (inactive)
CN(C)C(=O)C(F)(F)C(c1ccc(C(F)(F)F)cc1)C1C(=O)N(C)C(=O)N(C)C1=O (stereo unspecified) :: > 100 µM (inactive)
O=[N+]([O-])c1ccc2c(c1)N=C1OC(c3c[nH]c4ccc(COc5ccccc5)cc34)C(O)=C1N2 (stereo unspecified) :: > 100 µM (inactive)

# next compound below
Query GI50 on DU-145 for "N#Cc1nc(COCc2ccccc2)oc1N"
> 100 µM (inactive)

---

Let's look at some molecules and their measured GI50.
test system: SF-295; test: NCI tumour cell line growth inhibition, 48 h
Active and inactive are the calls of the source. Rule as the data show it: active = GI50 up to about 1.1 µM and inactive = higher.

These recorded examples may help you get a feel for the data.
CC[N+](CC)(CCNCC(N)=O)CC(N)=O :: > 10 µM (inactive)
C=C1CC[C@@H]2C(C)(C)CCC[C@@]2(C)[C@@H]1Cc1cc(O)ccc1O :: 10.2 µM (inactive)
CN1CCC/C1=C1/C(=O)N(c2ccccc2)N=C1c1ccc[nH]1 :: > 100 µM (inactive)
CC(=O)OC1CC2C(C)(C)OC(=O)CC(OC(C)=O)[C@]2(C)C2CCC3(C)C(=CCC3[C@H]3COC(=O)C3)[C@]12C (stereo not given in full) :: 41.5 µM (inactive)
COc1ccc2nc3c([N+](=O)[O-])ccc4c3c(c2c1)N(CCCN(C)C)C(=S)N4CCCN(C)C :: 4.6 µM (inactive)

Quick check: GI50 of CN1N(c2ccccc2)C(=O)C2=NC=C(C(=O)c3ccccc3)C(=N)C21C (stereo not given) ?
> 100 µM (inactive)

Request the reported GI50 associated with C=C1C(=O)OC2CC(C)C3C4OC4C(O)C3(C)C(O)C12 (stereo not given)
41 µM (inactive)

Sample "NC(=S)N/N=C/c1ccc(OC(=O)COc2ccccc2Cl)cn1" — what was its GI50?
> 62.7 µM (inactive)

Look up GI50: O=C(c1ccccc1)N1CCN2CCN=C(c3ccccc3)C21c1ccccc1 (stereo not given)
52.1 µM (inactive)

# GI50 lookup, item "O=P(CN1CCOCC1)(c1ccccc1)c1ccccc1"
> 100 µM (inactive)

---

tested on: M19-MEL; experiment: NCI tumour cell line growth inhibition, 48 h
The source made the active and inactive calls. Cut-off read from the data, not from the text of the source: active = GI50 up to about 1.1 µM and inactive = higher.
Reply using exactly one outcome from 1 (active), 0 (inactive)

CCC1(CC)C(=O)NC(=O)NC1=S :: 0
COC1=C2C[C@H](O)C(C)C[C@@]2(OC)OC1=O (some centres undefined) :: 0
CCC1OC(=O)C(C)C(OC2CC(C)(O)C(O)C(C)O2)C(C)C(O)C(C)(O)CC(C)C(=O)C(C)C(O)C1C (centres undefined) :: 0
COc1cc([C@H]2c3cc4c(cc3[C@H](NCc3ccc(F)cc3)C3COC(=O)[C@H]32)OCO4)cc(OC)c1O (some centres undefined) :: 0

Could you check what this test reported for "C=CC(OCC)(OCC)OCC" ?
0

Could you check what this test reported for "COc1c(C)cc(O)cc1C=O" ?
0

What outcome does the record of this test show for "CCN(CC)C(=O)CNC(=O)OC(C)(C)C" ?
0

Test call, this molecule: "Cc1c(C)c([N+](=O)[O-])c2c(c1N)C(=O)c1ccccc1C2=O"
0

How was "COc1ccc2nc3cc(Cl)ccc3c(NCCCN(CCCl)CCCl)c2c1" classified in this test?
1

What did the test return for O=c1ncccn1C1OC(CO)C(O)C1O (centres undefined) ?
0

---

system: RXF 393; assay: NCI tumour cell line growth inhibition, 48 h
Active and inactive are the calls of the source. No stated cut-off is given here; in the data, active = GI50 up to about 1.1 µM and inactive = higher.
Respond using exactly one of the listed classes: active, inactive

Use the examples below as a reference point.
NC(=O)C12CCC1C1CCCCC12N1CCOCC1 (stereo unspecified) :: inactive
CCC1(O)CC2CC(=O)OC2C1O (stereo unspecified) :: inactive
CC1(C)CC2(S(=O)(=O)c3ccccc3)ON1CC2S(=O)(=O)c1ccccc1 (stereo unspecified) :: inactive

Hi, sorry to bother you, what did the test record for "CC(C)(C)[C@H]1CCC2(OCCO2)[C@](O)(CCCO)C1" ?
inactive

// outcome(item) with item = CC(C)C(N)(C(=O)O)c1ccccc1 (stereo unspecified)
inactive

Entry "O=C1c2cccc3cc4ccccc4c(c23)C(=O)N1CCNCCN1C(=O)c2cccc3cc4ccccc4c(c23)C1=O" : call = ?
active

---

Reported GI50 values for the following molecules.
system: M14; assay: NCI tumour cell line growth inhibition, 48 h
The source made the active and inactive calls. No stated cut-off is given here; in the data, active = GI50 up to about 1.1 µM and inactive = higher.

What does the record list as GI50 for O=C(Nc1ccc(Cl)cc1C(F)(F)F)C(=O)C1CCCS1(=O)=O (stereo not given) ?
> 100 µM (inactive)

Quick one: GI50 of O=c1ncccn1C1OC(CO)C(O)C1O (stereo not given) ?
> 100 µM (inactive)

Fill in the blank: the reported GI50 of CC1=C(C(=O)N[C@@H](CC(C)C)C(=O)O)N2C(=O)[C@@H](NC(=O)C(N)c3ccccc3)[C@H]2SC1 (stereo not given in full) is ____.
> 100 µM (inactive)

Which value of GI50 has been reported for "Oc1c(Cl)c(Cl)c(O)c(-c2cnc(-c3ncc(-c4c(O)c(Cl)c(Cl)c(O)c4Cl)s3)s2)c1Cl" in the records?
19.5 µM (inactive)

What does the data say about its GI50? Entry: "COc1cc(NS(C)(=O)=O)ccc1NCc1c[nH]c2ccc3ncccc3c12"
16.3 µM (inactive)

Requested field: GI50. Item: O=C(OC1OC2COC(=O)c3cc(O)c(O)c(O)c3-c3c(cc(O)c(O)c3O)C(=O)OC3C2OC(=O)[C@@]24CC(=O)[C@@](O)(OC25C(=O)O[C@H]2[C@@H](O)CO[C@@]25O)C2(O)Oc5c(O)c(O)cc(c5C24)C(=O)OC13)c1cc(O)c(O)c(O)c1 (stereo not given in full)
49.3 µM (inactive)

Quick check: GI50 of "COC(=O)c1cc(C)ccc1/C=C1\Cc2cccc(C)c2C1=O" ?
> 100 µM (inactive)

Find the recorded GI50 belonging to "CCCCCC(=O)OC[n+]1ccc(-c2c(COC(=O)NC(C)C)c(COC(=O)NC(C)C)c3n2CCC3)cc1" and report it.
> 100 µM (inactive)

Which measured GI50 value corresponds to "NC(=O)Nc1cc(O)ccc1/N=N/c1ccc(S(=O)(=O)Nc2ccccn2)cc1" ?
> 100 µM (inactive)

Which measured GI50 value corresponds to "Oc1[nH]c(Nc2ccc(Cl)c(C(F)(F)F)c2)nc2ncnc1-2" ?
57.4 µM (inactive)

---

system: NCI-H522; test: NCI tumour cell line growth inhibition, 48 h
Activity calls are given as the source filed them. Rule as the data show it: active = GI50 up to about 1.1 µM and inactive = higher.
Outcome (select one): active, inactive

O=c1ncccn1C1OC(CO)C(O)C1O (centres undefined) :: inactive

Write down the call the test reported for this compound. Item: "C/C(=N\N=C(\N)SB(F)F)c1ccc2ccccc2c1"
inactive

Per the records of this test, what outcome belongs to CC(=O)O[C@H]1C(=O)[C@@]2(C)[C@H]([C@H](OC(=O)c3ccccc3)[C@]3(O)C[C@H](OC(=O)[C@H](O)[C@@H](NC(=O)CC(C)(C)C)c4ccccc4)C(C)=C1C3(C)C)C1(OC(C)=O)CO[C@@H]1C[C@@H]2O (some centres undefined) ?
active

Please share the test call associated with "C/C(=N\c1cccc(Cl)c1)c1ccncc1" .
inactive

Called result for "N#CCc1nc(-c2cc3ccc(O)cc3oc2=O)cs1"
inactive

---

test system: K562; assay: NCI tumour cell line growth inhibition, 48 h
Activity calls are given as the source filed them. No stated cut-off is given here; in the data, active = GI50 up to about 1.1 µM and inactive = higher.
Permitted responses: active, inactive

Would you please look over these solved cases?
CCc1ncnc2cc(OCC3CO3)c(OC)cc12 (centres undefined) :: active
CC(C)(C)[C@H]1CCC2(OCCO2)[C@](O)(CCCO)C1 :: inactive
[O-][n+]1c2c([n+]([O-])c3ccccc31)CCCCCCCCCC2 :: inactive
COc1cc([C@H]2c3cc4c(cc3[C@H](NCc3ccc(F)cc3)C3COC(=O)[C@H]32)OCO4)cc(OC)c1O (some centres undefined) :: inactive
c1ccc(CNn2nnc3ccccc32)cc1 :: inactive
CCOC(=O)c1c(NC(=O)c2ccc(Br)cc2)sc2c1CCCC2 :: inactive
O=C(CC(NC(=O)C(F)(F)F)C(=O)O)OCc1ccccc1 (centres undefined) :: inactive
CC(=O)c1cccc(NC(=O)C(=O)Nn2c(N)nnc2N)c1 :: inactive
CC1c2[nH]c3ccccc3c2CCN1O (centres undefined) :: inactive
O=C(O)CC1NCc2cc3ccccc3nc21 (centres undefined) :: inactive

For COc1ccccc1N1C(=O)/C(=C\c2ccccc2)SC1c1cc(OC)c(OC)c(OC)c1 (centres undefined) , what call appears in the results of this test?
inactive

Hello, I am checking results. What call was entered for "CCC/C=C/C=C\C(=O)O[C@@H]1[C@@H](C)[C@]2(O)[C@@H]3C=C(C)C(=O)[C@H]3CC(COC(C)=O)=C[C@H]2[C@@H]2C(C)(C)[C@]12OC(C)=O" ?
inactive

Assay result, entry "Cn1cnnc1Sc1c([N+](=O)[O-])nc(-c2ccc([N+](=O)[O-])cc2)n1C" — outcome?
inactive

// param item: CCCCCCCCCCCCCC(=O)N(CCCCCCCCC)CC(O)C(O)C(OC1OC(CO)C(O)C(O)C1O)C(O)CO (centres undefined) ; yields the recorded call
inactive

Recorded test call requested for "CN(C)CCN(/C(=N/c1ccccc1)N1CCCC1)c1ccccc1"
inactive

Answer briefly: the call reported for "COc1ccc(CN(CCc2c[nH]c3ccccc23)Cc2ccc(OC)cc2)cc1" in this assay.
inactive

Hey, what did the test say about CC(=O)C(CN(C)Cc1ccccc1)C(c1ccccc1)c1c(O)c2ccccc2oc1=O (centres undefined) ?
inactive
